- System: HCI-016 (organoid from a triple-negative breast cancer xenograft)
- procedureDetails: CTG-3D luminescence at 96 h relative to day-0 seeding control (ratio to day 0); higher = more growth / less cytotoxicity; PDxO 3D drug screen (set 2), 96 h, CTG-3D normalised to day-0 seeding control.
- conditionDescription: 0.00025 µM; days in culture: 327
# cutoff 1 applies to CTG-3D luminescence at 96 h; >= gives YES, < gives NO

input: Determine whether measured CTG-3D luminescence at 96 h meets or exceeds 1 for CS(=O)(=O)CCNCc1ccc(-c2ccc3ncnc(Nc4ccc(OCc5cccc(F)c5)c(Cl)c4)c3c2)o1 [lapatinib]
output: NO

input: Determine whether measured CTG-3D luminescence at 96 h meets or exceeds 1 for C[C@@H](Nc1cc(F)cc(F)c1)c1cc(C(=O)N(C)C)cc2c(=O)cc(N3CCOCC3)oc12 [AZD-8186]
output: YES

input: Determine whether measured CTG-3D luminescence at 96 h meets or exceeds 1 for Cc1c(CN2CCN(C(=O)[C@H](C)O)CC2)sc2c(N3CCOCC3)nc(-c3cnc(N)nc3)nc12 [apitolisib]
output: YES

input: Determine whether measured CTG-3D luminescence at 96 h meets or exceeds 1 for Nc1cc(C(F)(F)F)c(-c2cc(N3CCOCC3)nc(N3CCOCC3)n2)cn1 [buparlisib]
output: YES

input: Determine whether measured CTG-3D luminescence at 96 h meets or exceeds 1 for COc1cccc2c1C(=O)c1c(O)c3c(c(O)c1C2=O)C[C@@](O)(C(=O)CO)C[C@@H]3O[C@H]1C[C@H](N)[C@@H](O)[C@H](C)O1 [epirubicin]
output: NO
